Tested on: ACK1 (Homo sapiens (Human))
Sequence (Q07912 whole entry): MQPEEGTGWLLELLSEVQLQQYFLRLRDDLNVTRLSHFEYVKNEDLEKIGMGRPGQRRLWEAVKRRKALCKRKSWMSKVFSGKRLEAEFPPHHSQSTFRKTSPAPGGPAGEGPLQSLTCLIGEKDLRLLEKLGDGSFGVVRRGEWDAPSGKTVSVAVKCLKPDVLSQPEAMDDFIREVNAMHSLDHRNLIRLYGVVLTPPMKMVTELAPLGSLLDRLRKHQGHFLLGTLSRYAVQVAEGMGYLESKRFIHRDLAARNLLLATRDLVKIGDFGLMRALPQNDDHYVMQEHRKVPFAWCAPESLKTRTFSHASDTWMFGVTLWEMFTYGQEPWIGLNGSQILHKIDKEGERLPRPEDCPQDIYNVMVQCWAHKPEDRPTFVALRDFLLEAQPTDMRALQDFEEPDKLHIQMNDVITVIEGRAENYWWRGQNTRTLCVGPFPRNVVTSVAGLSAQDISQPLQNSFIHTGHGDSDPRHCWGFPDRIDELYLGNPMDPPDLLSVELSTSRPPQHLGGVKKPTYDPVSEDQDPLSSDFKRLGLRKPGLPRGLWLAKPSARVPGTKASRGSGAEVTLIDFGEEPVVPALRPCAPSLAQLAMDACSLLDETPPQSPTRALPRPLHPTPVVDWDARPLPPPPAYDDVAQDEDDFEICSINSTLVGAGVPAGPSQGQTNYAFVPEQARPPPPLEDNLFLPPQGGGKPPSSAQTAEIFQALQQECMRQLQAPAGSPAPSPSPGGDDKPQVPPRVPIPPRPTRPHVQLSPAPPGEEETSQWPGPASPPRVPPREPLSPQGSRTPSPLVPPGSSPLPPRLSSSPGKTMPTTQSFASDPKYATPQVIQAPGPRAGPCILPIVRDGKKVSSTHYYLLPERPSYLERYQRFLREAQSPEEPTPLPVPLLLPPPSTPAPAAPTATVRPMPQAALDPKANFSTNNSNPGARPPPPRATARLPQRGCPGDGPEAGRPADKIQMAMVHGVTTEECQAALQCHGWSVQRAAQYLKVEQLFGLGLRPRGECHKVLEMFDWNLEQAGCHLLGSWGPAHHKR
Protocol summary: Reaction Biology 33P Hotspot assay
Format: biochemical
Measurement name: IC50 (nM)
Numbers only, in nM.

// solved cases for IC50 follow
COc1c(Nc2ncc(C)c(Nc3cccc(NS(=O)(=O)C(C)(C)C)c3)n2)ccc(N2CCN(C)CC2)c1F
37.6
Cc1cnc(Nc2ccc(N3CCN(C)CC3)c(OC(C)C)c2)nc1Nc1ccc(NS(=O)(=O)C(C)(C)C)cc1
18.7
CC(=O)N1CCN(c2ccc(Nc3ncc(C)c(Nc4cccc(NS(=O)(=O)C(C)(C)C)c4)n3)cc2)CC1
15.3
COc1cc(N2CCN(C(C)=O)CC2)ccc1Nc1ncc(C)c(Nc2cccc(NS(=O)(=O)C(C)(C)C)c2)n1
21.3
COc1cc(N2CCN(C)CC2)ccc1Nc1ncc(C)c(Nc2ccc(NS(=O)(=O)C(C)(C)C)cc2)n1
7.62

Dear colleague, could you please provide IC50 for the compounds listed below?
1. COc1cc(-n2cccn2)ccc1Nc1ncc(C)c(Nc2cccc(NS(=O)(=O)C(C)(C)C)c2)n1
2. Cc1cnc(Nc2ccc(N3CCN(C)CC3)cc2OC2CCC2)nc1Nc1cccc(NS(=O)(=O)C(C)(C)C)c1
3. CC(C)Oc1cc(Nc2ncc(Cl)c(Nc3cccc(NS(=O)(=O)C(C)(C)C)c3)n2)ccc1-c1cnn(C)c1

19.8
26.2
64

Hi team, please reply with IC50 for each item in this list.
1. Cc1cnc(Nc2ccc(-c3cnn(C)c3)c(OC(C)C)c2)nc1Nc1cccc(NS(=O)(=O)C(C)(C)C)c1
2. COc1cc(Nc2ncc(Cl)c(Nc3ccc(NS(=O)(=O)C(C)(C)C)cc3)n2)ccc1N1CCN(C)CC1
3. CC(=O)N1CCN(c2ccc(Nc3ncc(C)c(Nc4cccc(NS(=O)(=O)C(C)(C)C)c4)n3)cc2OC(C)C)CC1

26
17.5
13

The following compounds each have a reported value; give each one's IC50.
1. COc1cc(N2CCN(C)CC2)c(F)cc1Nc1ncc(C)c(Nc2cccc(NS(=O)(=O)C(C)(C)C)c2)n1
2. Cc1cnc(Nc2ccc(OCC3CCOCC3)cc2)nc1Nc1cccc(NS(=O)(=O)C(C)(C)C)c1
3. Cc1cnc(Nc2ccc(-c3cnn(C)c3)cc2OC(C)C)nc1Nc1cccc(NS(=O)(=O)C(C)(C)C)c1
4. CN1CCN(c2ccc(Nc3ncc(Cl)c(Nc4cccc(NS(=O)(=O)C(C)(C)C)c4)n3)c(OC3CCC3)c2)CC1
5. COc1cc(N2CCN(C)CC2)c(F)cc1Nc1ncc(C)c(Nc2ccc(NS(C)(=O)=O)cc2)n1
6. Cc1cnc(Nc2ccc(-c3cnn(C)c3)c(OC(C)C)c2)nc1Nc1ccc(NS(=O)(=O)C(C)(C)C)cc1
7. CC(C)Oc1cc(Nc2ncc(Cl)c(Nc3ccc(NS(=O)(=O)C(C)(C)C)cc3)n2)ccc1-c1cnn(C)c1
8. COc1cc(N2CCN(C)CC2)ccc1Nc1ncc(Cl)c(Nc2ccc(NS(=O)(=O)C(C)(C)C)cc2)n1

16.9
26
149
30
14.8
16.9
75.9
17.5
